Each item that follows carries a reported Hemolysis (%) at 125 µM.
- Tested on: erythrocyte suspensions of human blood
- assayMethodText: Hemolytic activity, hemoglobin release
- Assay type: cell-based
- conditionSummary: peptide 125 μM (table prints 125 µM); human blood erythrocytes 5% v/v; absorbance 540 nm; percentage compared to melittin; three replicates
Peptide text beside a SMILES is read from it.
quantityName: Hemolysis (%) at 125 µM

# compound, quantityName, unitsLabel, obsValue
measured = [
    ("CC(C)C[C@@H]1NC(=O)[C@H](CCCCN)NC(=O)[C@H](Cc2c[nH]c3ccccc23)NC(=O)[C@H](CC(C)C)NC(=O)[C@H](CC(C)C)NC(=O)[C@H](CCCCN)NC(=O)[C@H](CCCCN)NC(=O)[C@H](CCCCN)NC(=O)[C@H](CCC(N)=O)NC(=O)[C@H](CCCCN)NC1=O [BPC110W, c(KKKLLWKLKQ)] (cyclo(KKKLLWKLKQ))", "Hemolysis (%) at 125 µM", "%", 4),
    ("CC(C)C[C@@H]1NC(=O)[C@H](CCC(N)=O)NC(=O)[C@H](CCCCN)NC(=O)[C@H](CC(C)C)NC(=O)[C@H](CCCCN)NC(=O)[C@H](Cc2c[nH]c3ccccc23)NC(=O)[C@H](CC(C)C)NC(=O)[C@H](CCCCN)NC(=O)[C@H](CCCCN)NC(=O)[C@H](CCCCN)NC1=O [BPC116W, c(LKKKLWKLKQ)] (cyclo(KKKLWKLKQL))", "Hemolysis (%) at 125 µM", "%", 14),
    ("CC(C)C[C@@H]1NC(=O)[C@H](CCCCN)NC(=O)[C@H](CCCCN)NC(=O)[C@H](CC(C)C)NC(=O)[C@H](CC(C)C)NC(=O)[C@H](CCC(N)=O)NC(=O)[C@H](CCCCN)NC(=O)[C@H](CCCCN)NC(=O)[C@H](CCCCN)NC(=O)[C@H](Cc2c[nH]c3ccccc23)NC1=O [BPC158W, c(LLKKLWKKKQ)] (cyclo(KKKQLLKKLW))", "Hemolysis (%) at 125 µM", "%", 14),
    ("CC(C)C[C@@H]1NC(=O)[C@H](CCCCN)NC(=O)[C@H](Cc2c[nH]c3ccccc23)NC(=O)[C@H](CCCCN)NC(=O)[C@H](CCCCN)NC(=O)[C@H](CC(C)C)NC(=O)[C@H](CCCCN)NC(=O)[C@H](CC(C)C)NC(=O)[C@H](CCC(N)=O)NC(=O)[C@H](CCCCN)NC1=O [BPC124W, c(LKLKKWKLKQ)] (cyclo(KKWKLKQLKL))", "Hemolysis (%) at 125 µM", "%", 2),
    ("CC(C)C[C@@H]1NC(=O)[C@H](CCCCN)NC(=O)[C@H](CCCCN)NC(=O)[C@H](CCC(N)=O)NC(=O)[C@H](CC(C)C)NC(=O)[C@H](CCCCN)NC(=O)[C@H](CC(C)C)NC(=O)[C@H](Cc2c[nH]c3ccccc23)NC(=O)[C@H](CCCCN)NC(=O)[C@H](CCCCN)NC1=O [BPC074W, c(KKLKKWLKLQ)] (cyclo(KKLKKWLKLQ))", "Hemolysis (%) at 125 µM", "%", 50),
    ("CC(C)C[C@@H]1NC(=O)[C@H](CCCCN)NC(=O)[C@H](CC(C)C)NC(=O)[C@H](Cc2c[nH]c3ccccc23)NC(=O)[C@H](CC(C)C)NC(=O)[C@H](CCCCN)NC(=O)[C@H](CCCCN)NC(=O)[C@H](CCCCN)NC(=O)[C@H](CCCCN)NC(=O)[C@H](CCC(N)=O)NC1=O [BPC070W, c(KKKKLWLKLQ)] (cyclo(KKKKLWLKLQ))", "Hemolysis (%) at 125 µM", "%", 9),
    ("CC(C)C[C@@H]1NC(=O)[C@H](CCCCN)NC(=O)[C@H](CCCCN)NC(=O)[C@H](CCCCN)NC(=O)[C@H](CCC(N)=O)NC(=O)[C@H](CC(C)C)NC(=O)[C@H](CC(C)C)NC(=O)[C@H](CCCCN)NC(=O)[C@H](Cc2c[nH]c3ccccc23)NC(=O)[C@H](CCCCN)NC1=O [BPC062W, c(KKKLKWKLLQ)] (cyclo(KKKLKWKLLQ))", "Hemolysis (%) at 125 µM", "%", 4),
    ("CC(C)C[C@@H]1NC(=O)[C@H](CCC(N)=O)NC(=O)[C@H](CCCCN)NC(=O)[C@H](CCCCN)NC(=O)[C@H](CCCCN)NC(=O)[C@H](Cc2c[nH]c3ccccc23)NC(=O)[C@H](CC(C)C)NC(=O)[C@H](CC(C)C)NC(=O)[C@H](CCCCN)NC(=O)[C@H](CCCCN)NC1=O [BPC152W, c(LKKLLWKKKQ)] (cyclo(KKKQLKKLLW))", "Hemolysis (%) at 125 µM", "%", 3),
    ("CC(C)C[C@@H]1NC(=O)[C@H](CCCCN)NC(=O)[C@H](Cc2c[nH]c3ccccc23)NC(=O)[C@H](CCCCN)NC(=O)[C@H](CCCCN)NC(=O)[C@H](CCCCN)NC(=O)[C@H](CC(C)C)NC(=O)[C@H](CC(C)C)NC(=O)[C@H](CCC(N)=O)NC(=O)[C@H](CCCCN)NC1=O [BPC126W, c(LLKKKWKLKQ)] (cyclo(KKKWKLKQLL))", "Hemolysis (%) at 125 µM", "%", 9),
    ("CC(C)C[C@@H]1NC(=O)[C@H](CCCCN)NC(=O)[C@H](CCCCN)NC(=O)[C@H](Cc2c[nH]c3ccccc23)NC(=O)[C@H](CCCCN)NC(=O)[C@H](CC(C)C)NC(=O)[C@H](CC(C)C)NC(=O)[C@H](CCCCN)NC(=O)[C@H](CCCCN)NC(=O)[C@H](CCC(N)=O)NC1=O [BPC088W, c(KKLLKWKKLQ)] (cyclo(KKLLKWKKLQ))", "Hemolysis (%) at 125 µM", "%", 19),
    ("CC(C)C[C@@H]1NC(=O)[C@H](CCCCN)NC(=O)[C@H](CC(C)C)NC(=O)[C@H](CCC(N)=O)NC(=O)[C@H](CCCCN)NC(=O)[C@H](CCCCN)NC(=O)[C@H](CC(C)C)NC(=O)[C@H](Cc2c[nH]c3ccccc23)NC(=O)[C@H](CCCCN)NC(=O)[C@H](CCCCN)NC1=O [BPC144W, c(LKLKKWLKKQ)] (cyclo(KKQLKLKKWL))", "Hemolysis (%) at 125 µM", "%", 21),
    ("CC(C)C[C@@H]1NC(=O)[C@H](CCCCN)NC(=O)[C@H](CCCCN)NC(=O)[C@H](CCC(N)=O)NC(=O)[C@H](CCCCN)NC(=O)[C@H](CCCCN)NC(=O)[C@H](CC(C)C)NC(=O)[C@H](Cc2c[nH]c3ccccc23)NC(=O)[C@H](CCCCN)NC(=O)[C@H](CC(C)C)NC1=O [BPC136W, c(KKLLKWLKKQ)] (cyclo(KKLLKWLKKQ))", "Hemolysis (%) at 125 µM", "%", 2),
]
